Provide the recorded GI50 for the entries that follow.
Test system: RPMI 7666 cells
Form entry: value (µM) — number only.

For reference, reported GI50 for CCCCCCCCCCCCC/C=C/[C@@H](O)[C@H](CO)NC(=O)CCCCC [C6-Ceramide, C6-ceramide, reference compound] stands at 8.5

For this molecule ( CCCCCCCCCCCCC/C=C/[C@@H](O)[C@H](COC(C)=O)NC(=O)CCCCC [1-Acetate C6-Ceramide, 1-acetate, C6-ceramide] ), measured GI50 is 9
